These measurements were taken from patent US20040219158A1.

# System name: PA-IIL lectin (Pseudomonas aeruginosa)
# Sequence (Q9HYN5 entry or part of it): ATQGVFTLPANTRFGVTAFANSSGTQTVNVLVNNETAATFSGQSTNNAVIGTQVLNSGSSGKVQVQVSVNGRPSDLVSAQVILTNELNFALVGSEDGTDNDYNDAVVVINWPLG
# Assay text: Inhibition of binding of HRP-labeled fucosylated polymer (Fuc-PAA-biotin) to immobilized PA-IIL lectin
# Procedure: Biotinylated polymers of Fucose (Fuc-PAA-biotin, GlycoTech Corp.) are allowed to couple HRP-labeled streptavidin (KPL labs) overnight at 4° C. PA-IIL lectin is immobilized in plastic microtiter wells and allowed to react with the HRP-labeled fucosylated polymer. Binding is detected by TMB substrate followed by color development with 1 M H3PO4 (FIG. 20). Conditions chosen for the assay are coating with 3 μg/ml PA-IIL and incubation of inhibitor with 2 μg/ml of fucosylated polymer.
pIC50: −log10 of the molar value.
Attribute measured: pIC50

1) O=C[C@@H](O)[C@@H](O)[C@H](O)[C@H](O)CO : 4.02
